Biological target: T1, C-terminal domain of ASPL (ASPL-C, residues 313-553) (human, UniProt Q9BZE9 313-553)
T1 construct: the 26 kDa printed for ASPL-C in the cross-linking experiment fits the chain without GST; The cited crystal structure covers residues 317-499; source: E. coli BL21 DE3 Rosetta2, purified (glutathione-Sepharose 4B, Superdex 75 SEC)
T1 sequence (looked up): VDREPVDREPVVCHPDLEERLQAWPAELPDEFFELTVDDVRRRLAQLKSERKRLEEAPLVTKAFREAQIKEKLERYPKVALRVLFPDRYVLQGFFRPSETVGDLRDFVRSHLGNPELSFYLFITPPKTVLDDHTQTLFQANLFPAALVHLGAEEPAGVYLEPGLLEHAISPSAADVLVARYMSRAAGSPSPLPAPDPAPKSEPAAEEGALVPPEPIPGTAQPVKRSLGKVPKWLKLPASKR
Assay: SPR; ASPL-C immobilised on CM5 chip by amine coupling (1000 RU); analytes 0.6 to 83 μM in 10 mM HEPES, 150 mM NaCl, 0.005% Tween20, pH 7.4; BIAcore 3000, duplicates; one-site specific binding fit of the response against concentration; no saturation reached
Settings: both partners purified
Measurement Kind: Kd (µM)

Binder	Meas Value
ESPRYLYCIQNLEGPARKSLKRLTGWADVSGVLAELKDECRKLERER (domain or fragment, UniProt P14672 225-271, looked up, human GLUT4 intracellular helical bundle (ICH) between TM6 and TM7, residues 225-271, with I232C and K264C to form a stabilising disulphide bond; Synthetic gene (GenScript) in pET24a; 18 kDa monomer; a 36 kDa peak was also seen on SEC; also called Trx-ICH_(GLUT4); ICH_(GLUT4); source: E. coli TUNER (DE3), purified (Ni-NTA, Superdex 75 SEC; monomer peak used); not shown: Trx (thioredoxin), …)	68

Origin of measurements: paper PMC10626271
